Consider the following compounds and their measured ED50 readings.
Tested on: Streptococcus pyogenes
assay_method_text: Experimental bacterial infection in mice, ED50
Type: in vivo
setup_conditions: Streptococcus pyogenes, po, two doses, dose protecting 50% of animals, read-out: Oral ED50
Report only the number, with the unit mg/kg understood.

Recorded results for 3 compounds are shown here.
compound: CC[C@H]1OC(=O)[C@H](C)[C@@H](O[C@H]2C[C@@](C)(OC)[C@@H](O)[C@H](C)O2)[C@H](C)[C@@H](O[C@@H]2O[C@H](C)C[C@H](N(C)C)[C@H]2O)[C@](C)(O)C[C@@H](C)[C@H](NCCC(C)C)[C@H](C)[C@@H](O)[C@]1(C)O [Compound 11]
target_under_test: Streptococcus pyogenes
data_value: 8.8
//
compound: CC[C@H]1OC(=O)[C@H](C)[C@@H](O[C@H]2C[C@@](C)(OC)[C@@H](O)[C@H](C)O2)[C@H](C)[C@@H](O[C@@H]2O[C@H](C)C[C@H](N(C)C)[C@H]2O)[C@](C)(O)C[C@@H](C)[C@H](NCC(C)(C)CO)[C@H](C)[C@@H](O)[C@]1(C)O [Compound 22]
target_under_test: Streptococcus pyogenes
data_value: 19.8
//
compound: CC[C@H]1OC(=O)[C@H](C)[C@@H](O[C@H]2C[C@@](C)(OC)[C@@H](O)[C@H](C)O2)[C@H](C)[C@@H](O[C@@H]2O[C@H](C)C[C@H](N(C)C)[C@H]2O)[C@](C)(O)C[C@@H](C)[C@H](NC)[C@H](C)[C@@H](O)[C@]1(C)O [Compound 1, 9-Deoxo-9-(methylamino)erythromycin]
target_under_test: Streptococcus pyogenes
data_value: 21

Record request: ED50 value, item CCCN1CO[C@@H]2[C@@H](C)[C@@H]1[C@H](C)C[C@@](C)(O)[C@H](O[C@@H]1O[C@H](C)C[C@H](N(C)C)[C@H]1O)[C@@H](C)[C@H](O[C@H]1C[C@@](C)(OC)[C@@H](O)[C@H](C)O1)[C@@H](C)C(=O)O[C@H](CC)[C@@]2(C)O [Compound 59] 4.8

###

Test system: Streptococcus pneumoniae
assay_method_text: Experimental bacterial infection in mice, ED50
Assay type: in vivo
setup_conditions: Streptococcus pneumoniae, po, two doses, dose protecting 50% of animals, read-out: Oral ED50
property: ED50

Below, each entry is followed by its recorded ED50 result.
compound: CCCCCCN[C@@H]1[C@H](C)[C@@H](O)[C@](C)(O)[C@@H](CC)OC(=O)[C@H](C)[C@@H](O[C@H]2C[C@@](C)(OC)[C@@H](O)[C@H](C)O2)[C@H](C)[C@@H](O[C@@H]2O[C@H](C)C[C@H](N(C)C)[C@H]2O)[C@](C)(O)C[C@H]1C
ED50: 14.3 mg/kg

compound: CC[C@H]1OC(=O)[C@H](C)[C@@H](O[C@H]2C[C@@](C)(OC)[C@@H](O)[C@H](C)O2)[C@H](C)[C@@H](O[C@@H]2O[C@H](C)C[C@H](N(C)C)[C@H]2O)[C@](C)(O)C[C@@H](C)[C@H](N(C)C)[C@H](C)[C@@H](O)[C@]1(C)O
ED50: 43.5 mg/kg

compound: CCCN1CO[C@@H]2[C@@H](C)[C@@H]1[C@H](C)C[C@@](C)(O)[C@H](O[C@@H]1O[C@H](C)C[C@H](N(C)C)[C@H]1O)[C@@H](C)[C@H](O[C@H]1C[C@@](C)(OC)[C@@H](O)[C@H](C)O1)[C@@H](C)C(=O)O[C@H](CC)[C@@]2(C)O
ED50: 5 mg/kg

compound: CC[C@H]1OC(=O)[C@H](C)[C@@H](O[C@H]2C[C@@](C)(OC)[C@@H](O)[C@H](C)O2)[C@H](C)[C@@H](O[C@@H]2O[C@H](C)C[C@H](N(C)C)[C@H]2O)[C@](C)(O)C[C@@H](C)[C@H](NCCCSC)[C@H](C)[C@@H](O)[C@]1(C)O
ED50: 9.2 mg/kg

compound: CCCCCCCCN[C@@H]1[C@H](C)[C@@H](O)[C@](C)(O)[C@@H](CC)OC(=O)[C@H](C)[C@@H](O[C@H]2C[C@@](C)(OC)[C@@H](O)[C@H](C)O2)[C@H](C)[C@@H](O[C@@H]2O[C@H](C)C[C@H](N(C)C)[C@H]2O)[C@](C)(O)C[C@H]1C
ED50: 46.1 mg/kg

compound: CCOC(=O)C1CC1CN[C@@H]1[C@H](C)[C@@H](O)[C@](C)(O)[C@@H](CC)OC(=O)[C@H](C)[C@@H](O[C@H]2C[C@@](C)(OC)[C@@H](O)[C@H](C)O2)[C@H](C)[C@@H](O[C@@H]2O[C@H](C)C[C@H](N(C)C)[C@H]2O)[C@](C)(O)C[C@H]1C (stereo partly shown)
ED50: 30.4 mg/kg

compound: CCC(CC)CN[C@@H]1[C@H](C)[C@@H](O)[C@](C)(O)[C@@H](CC)OC(=O)[C@H](C)[C@@H](O[C@H]2C[C@@](C)(OC)[C@@H](O)[C@H](C)O2)[C@H](C)[C@@H](O[C@@H]2O[C@H](C)C[C@H](N(C)C)[C@H]2O)[C@](C)(O)C[C@H]1C
ED50: 16.6 mg/kg

compound: CC[C@H]1OC(=O)[C@H](C)[C@@H](O[C@H]2C[C@@](C)(OC)[C@@H](O)[C@H](C)O2)[C@H](C)[C@@H](O[C@@H]2O[C@H](C)C[C@H](N(C)C)[C@H]2O)[C@](C)(O)C[C@@H](C)[C@H](NCCCc2ccccc2)[C@H](C)[C@@H](O)[C@]1(C)O
ED50: 17.2 mg/kg

compound: CC[C@H]1OC(=O)[C@H](C)[C@@H](O[C@H]2C[C@@](C)(OC)[C@@H](O)[C@H](C)O2)[C@H](C)[C@@H](O[C@@H]2O[C@H](C)C[C@H](N(C)C)[C@H]2O)[C@](C)(O)C[C@@H](C)[C@H](NCCCOC)[C@H](C)[C@@H](O)[C@]1(C)O
ED50: 15.9 mg/kg

compound: CC[C@H]1OC(=O)[C@H](C)[C@@H](O[C@H]2C[C@@](C)(OC)[C@@H](O)[C@H](C)O2)[C@H](C)[C@@H](O[C@@H]2O[C@H](C)C[C@H](N(C)C)[C@H]2O)[C@](C)(O)C[C@@H](C)[C@H]2[C@H](C)[C@@H](OCN2C2CCCC2)[C@]1(C)O
ED50: 9 mg/kg

Report ED50 for CC[C@H]1OC(=O)[C@H](C)[C@@H](O[C@H]2C[C@@](C)(OC)[C@@H](O)[C@H](C)O2)[C@H](C)[C@@H](O[C@@H]2O[C@H](C)C[C@H](N(C)C)[C@H]2O)[C@](C)(O)C[C@@H](C)[C@H](NCCC(C)C)[C@H](C)[C@@H](O)[C@]1(C)O please. 10.8 mg/kg

# lookup: ED50 of CC[C@H]1OC(=O)[C@H](C)[C@@H](O[C@H]2C[C@@](C)(OC)[C@@H](O)[C@H](C)O2)[C@H](C)[C@@H](O[C@@H]2O[C@H](C)C[C@H](N(C)C)[C@H]2O)[C@](C)(O)C[C@@H](C)[C@H]2[C@H](C)[C@@H](OCN2Cc2ccccc2)[C@]1(C)O 15.2 mg/kg

If you can, please state the reported ED50 value of CCCCCCCCCCCCN[C@@H]1[C@H](C)[C@@H](O)[C@](C)(O)[C@@H](CC)OC(=O)[C@H](C)[C@@H](O[C@H]2C[C@@](C)(OC)[C@@H](O)[C@H](C)O2)[C@H](C)[C@@H](O[C@@H]2O[C@H](C)C[C@H](N(C)C)[C@H]2O)[C@](C)(O)C[C@H]1C . > 50 mg/kg

###

Tested on: Staphylococcus aureus S13E
assay_method_text: MIC, standard agar-dilution assay
Assay type: cell-based
Classify: Met when MIC is strictly less than 1 µg/mL; Not met when MIC is not.

chemical_structure: CCCCCCCCCCN[C@@H]1[C@H](C)[C@@H](O)[C@](C)(O)[C@@H](CC)OC(=O)[C@H](C)[C@@H](O[C@H]2C[C@@](C)(OC)[C@@H](O)[C@H](C)O2)[C@H](C)[C@@H](O[C@@H]2O[C@H](C)C[C@H](N(C)C)[C@H]2O)[C@](C)(O)C[C@H]1C
category_label: Met

chemical_structure: CC[C@H]1OC(=O)[C@H](C)[C@@H](O[C@H]2C[C@@](C)(OC)[C@@H](O)[C@H](C)O2)[C@H](C)[C@@H](O[C@@H]2O[C@H](C)C[C@H](N(C)C)[C@H]2O)[C@](C)(O)C[C@@H](C)[C@H]2[C@H](C)[C@@H](OCN2C2CCCC2)[C@]1(C)O
category_label: Not met

chemical_structure: CCC(CC)CN[C@@H]1[C@H](C)[C@@H](O)[C@](C)(O)[C@@H](CC)OC(=O)[C@H](C)[C@@H](O[C@H]2C[C@@](C)(OC)[C@@H](O)[C@H](C)O2)[C@H](C)[C@@H](O[C@@H]2O[C@H](C)C[C@H](N(C)C)[C@H]2O)[C@](C)(O)C[C@H]1C
category_label: Met

chemical_structure: CC[C@H]1OC(=O)[C@H](C)[C@@H](O[C@H]2C[C@@](C)(OC)[C@@H](O)[C@H](C)O2)[C@H](C)[C@@H](O[C@@H]2O[C@H](C)C[C@H](N(C)C)[C@H]2O)[C@](C)(O)C[C@@H](C)[C@H](NCCOCCOC)[C@H](C)[C@@H](O)[C@]1(C)O
category_label: Not met

chemical_structure: CC[C@H]1OC(=O)[C@H](C)[C@@H](O[C@H]2C[C@@](C)(OC)[C@@H](O)[C@H](C)O2)[C@H](C)[C@@H](O[C@@H]2O[C@H](C)C[C@H](N(C)C)[C@H]2O)[C@](C)(O)C[C@@H](C)[C@H](NCCCSC)[C@H](C)[C@@H](O)[C@]1(C)O
category_label: Met

Quick check: MIC of CC[C@H]1OC(=O)[C@H](C)[C@@H](O[C@H]2C[C@@](C)(OC)[C@@H](O)[C@H](C)O2)[C@H](C)[C@@H](O[C@@H]2O[C@H](C)C[C@H](N(C)C)[C@H]2O)[C@](C)(O)C[C@@H](C)[C@H](NCCC(C)C)[C@H](C)[C@@H](O)[C@]1(C)O under 1 µg/mL? Met
